Hey, just so you know, these numbers are from patent US20230072683A1.

TARGET_OR_SYSTEM: DNA-PK(h) (Homo sapiens)
MEASUREMENT_PROTOCOL: Evaluation of inhibitory activity against DNA-PK (HTRF kinase assay, GST-cMyc-p53 substrate)
Assay type: biochemical
MEASUREMENT_PARAMETERS: compound at 0.1 μM; read-out: EXP_VALUE(% Inhibition) DNA-PK(h) 0.1 μM
Listed below: inhibition at 0.1 µM values for each entry.
State just the number; it will be interpreted in %.

Record excerpt, results attached:
>  <SMILES_RECORD>
C[C@H](Nc1ncnc2[nH]ccc(=O)c12)c1c(Cl)c2cccc(Sc3nccs3)c2c(=O)n1-c1ccccc1

>  <inhibition at 0.1 µM [%]>
48

$$$$
>  <SMILES_RECORD>
CCC[S@+]([O-])c1cccc2c(Cl)c([C@H](C)Nc3ncnc4[nH]ccc(=O)c34)n(-c3ccccc3)c(=O)c12

>  <inhibition at 0.1 µM [%]>
46

$$$$
>  <SMILES_RECORD>
CCSc1cccc2c(Cl)c([C@H](C)Nc3ncnc4[nH]ccc(=O)c34)n(-c3ccccc3)c(=O)c12

>  <inhibition at 0.1 µM [%]>
32

$$$$
>  <SMILES_RECORD>
C[C@H](Nc1ncnc2[nH]ccc(=O)c12)c1c(Cl)c2cccc(Sc3ccccn3)c2c(=O)n1-c1ccccc1

>  <inhibition at 0.1 µM [%]>
15

$$$$
>  <SMILES_RECORD>
CCc1ncc(-c2cccc3c(Cl)c([C@H](C)Nc4ncnc5[nH]ccc(=O)c45)n(-c4ccccc4)c(=O)c23)cn1

>  <inhibition at 0.1 µM [%]>
74

$$$$

Read the next record carefully.
Give reported inhibition at 0.1 µM for C[C@H](Nc1ncnc2[nH]ccc(=O)c12)c1c(Cl)c2cccc([S@@](=N)(=O)c3ncccn3)c2c(=O)n1-c1ccccc1 (DNA-PK(h) (Homo sapiens))
18

====

TARGET_OR_SYSTEM: DNA-PK(h) (Homo sapiens)
MEASUREMENT_PROTOCOL: Evaluation of inhibitory activity against DNA-PK (HTRF kinase assay, GST-cMyc-p53 substrate)
Assay type: biochemical
MEASUREMENT_PARAMETERS: compound concentration 0.1 μM; read-out: EXP_VALUE(% Inhibition) DNA-PK(h) 0.1 μM
PROPERTY_MEASURED: inhibition at 0.1 µM (%)
State just the number; it will be interpreted in %.

>  <SMILES_RECORD>
C[C@H](Nc1ncnc2[nH]ccc(=O)c12)c1c(Cl)c2cccc(N3CCC(N4CCCCC4)CC3)c2c(=O)n1-c1ccccc1

>  <RESULT_VALUE>
73

$$$$
>  <SMILES_RECORD>
C[C@H](Nc1ncnc2[nH]ccc(=O)c12)c1cc2cccc(-c3ccc(F)cc3)c2c(=O)n1-c1ccccc1

>  <RESULT_VALUE>
27

$$$$
>  <SMILES_RECORD>
C[C@H](Nc1ncnc2[nH]ccc(=O)c12)c1c(Cl)c2cccc(-c3ccc(C=O)cc3)c2c(=O)n1-c1ccccc1

>  <RESULT_VALUE>
91

$$$$

Read the next record carefully.
Please give measured inhibition at 0.1 µM of the following entry: C[C@H](Nc1ncnc2[nH]ccc(=O)c12)c1c(Cl)c2cccc(-c3cc4ccccc4o3)c2c(=O)n1-c1ccccc1
74

====

TARGET_OR_SYSTEM: DNA-PK(h) (Homo sapiens, UniProt P78527)
MEASUREMENT_PROTOCOL: Evaluation of inhibitory activity against DNA-PK (HTRF kinase assay, GST-cMyc-p53 substrate)
Format: biochemical
MEASUREMENT_PARAMETERS: compound concentration 0.01 μM; read-out: EXP_VALUE(% Inhibition) DNA-PK(h) 0.01 μM
Listed below: inhibition at 0.01 µM values for each entry.
State just the number; it will be interpreted in %.

>  <MOLECULE>
C[C@H](Nc1ncnc2[nH]ccc(=O)c12)c1c(Cl)c2cccc(-c3cnn(C)c3)c2c(=O)n1-c1ccccc1 [Example 5]

>  <PROPERTY_MEASURED>
inhibition at 0.01 µM

>  <RESULT_VALUE>
69

$$$$
>  <MOLECULE>
COc1cc(-c2cccc3c(Cl)c([C@H](C)Nc4ncnc5[nH]ccc(=O)c45)n(-c4ccccc4)c(=O)c23)ccn1 [Example 150]

>  <PROPERTY_MEASURED>
inhibition at 0.01 µM

>  <RESULT_VALUE>
93

$$$$
>  <MOLECULE>
C[C@H](Nc1ncnc2[nH]ccc(=O)c12)c1c(Cl)c2cccc(C(=O)NCc3ccco3)c2c(=O)n1-c1ccccc1 [Example 279]

>  <PROPERTY_MEASURED>
inhibition at 0.01 µM

>  <RESULT_VALUE>
11

$$$$
>  <MOLECULE>
C[C@H](Nc1ncnc2[nH]ccc(=O)c12)c1c(Cl)c2cccc(Nc3ccc(F)cc3)c2c(=O)n1-c1ccccc1 [Example 344]

>  <PROPERTY_MEASURED>
inhibition at 0.01 µM

>  <RESULT_VALUE>
-7

$$$$
>  <MOLECULE>
COc1cccc2c(Cl)c([C@H](C)Nc3ncnc4[nH]ccc(=O)c34)n(-c3ccccc3)c(=O)c12 [Example 365]

>  <PROPERTY_MEASURED>
inhibition at 0.01 µM

>  <RESULT_VALUE>
28

$$$$

Give reported inhibition at 0.01 µM for C[C@H](Nc1ncnc2[nH]ccc(=O)c12)c1c(Cl)c2cccc(-c3ccc(C(=O)N4CCOCC4)cc3)c2c(=O)n1-c1ccccc1 [Example 145] (DNA-PK(h) (Homo sapiens, UniProt P78527))
93

Give reported inhibition at 0.01 µM for C[C@H](Nc1ncnc2[nH]ccc(=O)c12)c1c(Cl)c2cccc(-c3cnc(C4CC4)nc3)c2c(=O)n1-c1ccccc1 [Example 168] (DNA-PK(h) (Homo sapiens, UniProt P78527))
67

Give reported inhibition at 0.01 µM for C[C@H](Nc1ncnc2[nH]ccc(=O)c12)c1c(Cl)c2cccc(-c3ccc(OCc4ccccc4)nc3)c2c(=O)n1-c1ccccc1 [Example 164] (DNA-PK(h) (Homo sapiens, UniProt P78527))
20

Give reported inhibition at 0.01 µM for C[C@H](Nc1ncnc2[nH]ccc(=O)c12)c1c(Cl)c2cccc(-c3cccc(F)c3F)c2c(=O)n1-c1ccccc1 [Example 129] (DNA-PK(h) (Homo sapiens, UniProt P78527))
56

====

TARGET_OR_SYSTEM: PI3K-δ (PI3K(p1108/p857) (h)) (Homo sapiens)
Sequence (O00329 whole entry): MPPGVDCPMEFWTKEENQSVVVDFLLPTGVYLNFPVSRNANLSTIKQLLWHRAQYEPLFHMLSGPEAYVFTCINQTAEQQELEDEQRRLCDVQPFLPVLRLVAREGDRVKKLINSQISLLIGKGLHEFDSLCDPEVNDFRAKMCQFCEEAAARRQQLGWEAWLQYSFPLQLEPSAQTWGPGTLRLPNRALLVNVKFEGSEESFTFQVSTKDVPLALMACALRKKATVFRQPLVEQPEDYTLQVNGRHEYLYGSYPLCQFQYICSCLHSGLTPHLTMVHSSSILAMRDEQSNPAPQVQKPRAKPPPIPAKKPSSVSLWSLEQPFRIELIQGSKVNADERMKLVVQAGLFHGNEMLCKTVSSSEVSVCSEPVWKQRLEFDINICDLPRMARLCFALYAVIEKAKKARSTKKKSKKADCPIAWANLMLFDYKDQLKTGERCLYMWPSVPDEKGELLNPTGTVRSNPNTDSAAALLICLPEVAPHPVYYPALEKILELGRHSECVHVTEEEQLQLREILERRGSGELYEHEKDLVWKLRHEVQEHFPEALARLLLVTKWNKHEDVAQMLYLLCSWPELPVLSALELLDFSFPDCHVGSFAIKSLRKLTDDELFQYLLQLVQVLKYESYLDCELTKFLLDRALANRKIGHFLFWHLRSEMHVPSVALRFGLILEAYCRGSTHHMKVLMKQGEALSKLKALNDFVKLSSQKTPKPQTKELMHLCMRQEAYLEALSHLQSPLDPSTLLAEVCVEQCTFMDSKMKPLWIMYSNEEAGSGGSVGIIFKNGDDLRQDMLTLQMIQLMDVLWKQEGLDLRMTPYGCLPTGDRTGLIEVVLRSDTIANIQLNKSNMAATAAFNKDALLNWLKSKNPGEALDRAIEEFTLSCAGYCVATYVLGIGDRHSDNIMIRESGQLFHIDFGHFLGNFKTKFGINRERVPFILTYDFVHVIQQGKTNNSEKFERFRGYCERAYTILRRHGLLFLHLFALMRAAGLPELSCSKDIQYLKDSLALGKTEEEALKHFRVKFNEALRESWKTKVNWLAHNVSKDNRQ
Sequence (P27986 whole entry partner): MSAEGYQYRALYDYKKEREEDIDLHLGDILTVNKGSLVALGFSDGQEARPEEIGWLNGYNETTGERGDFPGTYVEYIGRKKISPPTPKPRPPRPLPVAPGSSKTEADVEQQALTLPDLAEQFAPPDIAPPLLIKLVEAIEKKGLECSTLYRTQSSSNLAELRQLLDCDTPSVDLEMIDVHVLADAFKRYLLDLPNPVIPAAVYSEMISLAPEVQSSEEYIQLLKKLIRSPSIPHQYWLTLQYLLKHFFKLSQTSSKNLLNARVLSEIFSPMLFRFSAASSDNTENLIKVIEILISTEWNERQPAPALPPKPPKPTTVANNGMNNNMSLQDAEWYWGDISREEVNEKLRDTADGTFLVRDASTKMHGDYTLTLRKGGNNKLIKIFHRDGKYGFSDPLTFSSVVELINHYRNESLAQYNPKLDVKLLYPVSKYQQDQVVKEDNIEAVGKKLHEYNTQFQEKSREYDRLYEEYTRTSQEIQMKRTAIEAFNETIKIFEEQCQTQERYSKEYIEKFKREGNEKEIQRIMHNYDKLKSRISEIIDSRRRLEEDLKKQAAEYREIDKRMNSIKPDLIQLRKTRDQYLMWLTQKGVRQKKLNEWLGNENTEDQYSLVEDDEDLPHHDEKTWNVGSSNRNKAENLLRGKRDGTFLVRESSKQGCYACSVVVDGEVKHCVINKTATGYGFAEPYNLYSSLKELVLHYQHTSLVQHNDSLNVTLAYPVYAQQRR
MEASUREMENT_PROTOCOL: Evaluation of inhibitory activity against PI3K-δ (HTRF kinase assay)
Assay type: biochemical
MEASUREMENT_PARAMETERS: compound concentration 0.1 μM; read-out: EXP_VALUE(% Inhibition) PI3K-δ 0.1 μM
PROPERTY_MEASURED: inhibition at 0.1 µM (%)
State just the number; it will be interpreted in %.

Record excerpt, results attached:
>  <MOLECULE>
C[C@H](Nc1ncnc2[nH]ccc(=O)c12)c1c(Cl)c2cccc(-c3ccc(-c4ccccc4)nc3)c2c(=O)n1-c1ccccc1 [Example 115]

>  <TARGET_OR_SYSTEM>
PI3K-δ (PI3K(p1108/p857) (h)) (Homo sapiens)

>  <PROPERTY_MEASURED>
inhibition at 0.1 µM

>  <RESULT_VALUE>
96

$$$$
>  <MOLECULE>
C[C@H](Nc1ncnc2[nH]ccc(=O)c12)c1c(Cl)c2cccc(-c3cccc(CC#N)c3)c2c(=O)n1-c1ccccc1 [Example 91]

>  <TARGET_OR_SYSTEM>
PI3K-δ (PI3K(p1108/p857) (h)) (Homo sapiens)

>  <PROPERTY_MEASURED>
inhibition at 0.1 µM

>  <RESULT_VALUE>
101

$$$$
>  <MOLECULE>
Cc1cc(-c2cccc3c(Cl)c([C@H](C)Nc4ncnc5[nH]ccc(=O)c45)n(-c4ccccc4)c(=O)c23)ccc1F [Example 128]

>  <TARGET_OR_SYSTEM>
PI3K-δ (PI3K(p1108/p857) (h)) (Homo sapiens)

>  <PROPERTY_MEASURED>
inhibition at 0.1 µM

>  <RESULT_VALUE>
105

$$$$
>  <MOLECULE>
C[C@H](Nc1ncnc2[nH]ccc(=O)c12)c1c(Cl)c2cccc(-c3cnn(CCN(C)C)c3)c2c(=O)n1-c1ccccc1 [Example 83]

>  <TARGET_OR_SYSTEM>
PI3K-δ (PI3K(p1108/p857) (h)) (Homo sapiens)

>  <PROPERTY_MEASURED>
inhibition at 0.1 µM

>  <RESULT_VALUE>
89

$$$$
>  <MOLECULE>
Cc1cncc(-c2cccc3c(Cl)c([C@H](C)Nc4ncnc5[nH]ccc(=O)c45)n(-c4ccccc4)c(=O)c23)c1 [Example 119]

>  <TARGET_OR_SYSTEM>
PI3K-δ (PI3K(p1108/p857) (h)) (Homo sapiens)

>  <PROPERTY_MEASURED>
inhibition at 0.1 µM

>  <RESULT_VALUE>
82

$$$$

Read the next record carefully.
Please give measured inhibition at 0.1 µM of the following entry: C[C@H](Nc1ncnc2[nH]ccc(=O)c12)c1c(Cl)c2cccc(C#Cc3ccccc3)c2c(=O)n1-c1ccccc1 [Example 305]
99
